# EXPERIMENTAL_DETAILS: Intravenous administration of nicotine in rats (plasma nicotine, pharmacokinetics)
# Format: in vivo, rat (male Lewis rats, Lew/Mol)
# TEST_CONTEXT: rat, 15 minutes after i.v. adm., 0.15 mg/kg BW, read-out: Plasma nicotine values, average for 6 rats
OBSERVATION_TYPE: concentration at […] (ng/mL)
One number for each entry, in ng/mL.

input: Requested field: concentration at […]. Item: CN1CCCC1c1cccnc1 (stereo not shown)
output: 47

* * *

# EXPERIMENTAL_DETAILS: Intravenous administration of nicotine in rats (plasma nicotine, pharmacokinetics)
# Assay type: in vivo, rat (male Lewis rats, Lew/Mol)
# TEST_CONTEXT: rat, i.v., 0.15 mg/kg BW, SIPHAR, read-out: Half-life (Ke line)
OBSERVATION_TYPE: half-life (h)
Answers are plain numbers, in h.

input: Requested field: half-life. Item: CN1CCCC1c1cccnc1 (stereo not shown)
output: 2.6

* * *

# EXPERIMENTAL_DETAILS: Intravenous administration of nicotine in rats (plasma nicotine, pharmacokinetics)
# Assay type: in vivo, rat (male Lewis rats, Lew/Mol)
# TEST_CONTEXT: rat, 240 minutes after i.v. adm., 0.15 mg/kg BW, read-out: Plasma nicotine values, average for 6 rats
OBSERVATION_TYPE: concentration at 4 h

input: Requested field: concentration at 4 h. Item: CN1CCCC1c1cccnc1 (stereo not shown) [nicotine]
output: 20 ng/mL

* * *

# EXPERIMENTAL_DETAILS: Intravenous administration of nicotine in rats (plasma nicotine, pharmacokinetics)
# Format: in vivo, rat (male Lewis rats, Lew/Mol)
# TEST_CONTEXT: rat, 45 minutes after i.v. adm., 0.15 mg/kg BW, read-out: Plasma nicotine values, average for 6 rats
OBSERVATION_TYPE: concentration at 0.75 h (ng/mL)
One number for each entry, in ng/mL.

input: Requested field: concentration at 0.75 h. Item: CN1CCCC1c1cccnc1 (stereo not shown) [nicotine]
output: 86

* * *

# EXPERIMENTAL_DETAILS: Intravenous administration of nicotine in rats (plasma nicotine, pharmacokinetics)
# Type: in vivo, rat (male Lewis rats, Lew/Mol)
# TEST_CONTEXT: rat, 150 minutes after i.v. adm., 0.15 mg/kg BW, read-out: Plasma nicotine values, average for 6 rats
OBSERVATION_TYPE: concentration at […] (ng/mL)
Numbers only, in ng/mL.

input: Requested field: concentration at […]. Item: CN1CCCC1c1cccnc1 (stereo not shown)
output: 36

* * *

# EXPERIMENTAL_DETAILS: Intravenous administration of nicotine in rats (plasma nicotine, pharmacokinetics)
# Type: in vivo, rat (male Lewis rats, Lew/Mol)
# TEST_CONTEXT: rat, 30 minutes after i.v. adm., 0.15 mg/kg BW, read-out: Plasma nicotine values, average for 6 rats
OBSERVATION_TYPE: concentration at 0.5 h (ng/mL)
One number for each entry, in ng/mL.

input: Requested field: concentration at 0.5 h. Item: CN1CCCC1c1cccnc1 (stereo not shown) [nicotine]
output: 61

* * *

# EXPERIMENTAL_DETAILS: Intravenous administration of nicotine in rats (plasma nicotine, pharmacokinetics)
# Assay type: in vivo, rat (male Lewis rats, Lew/Mol)
# TEST_CONTEXT: rat, 75 minutes after i.v. adm., 0.15 mg/kg BW, read-out: Plasma nicotine values, average for 6 rats
OBSERVATION_TYPE: concentration at […] (ng/mL)
One number for each entry, in ng/mL.

input: Requested field: concentration at […]. Item: CN1CCCC1c1cccnc1 (stereo not shown) [nicotine]
output: 51

* * *

# EXPERIMENTAL_DETAILS: Intravenous administration of nicotine in rats (plasma nicotine, pharmacokinetics)
# Assay type: in vivo, rat (male Lewis rats, Lew/Mol)
# TEST_CONTEXT: rat, i.v., 0.15 mg/kg BW, SIPHAR, read-out: Ke, parameter value (converted)
OBSERVATION_TYPE: k el (s⁻¹)
Give bare numbers, in s⁻¹.

input: Requested field: k el. Item: CN1CCCC1c1cccnc1 (stereo not shown)
output: 7.33e-05

* * *

# EXPERIMENTAL_DETAILS: Intravenous administration of nicotine in rats (plasma nicotine, pharmacokinetics)
# Format: in vivo, rat (male Lewis rats, Lew/Mol)
# TEST_CONTEXT: rat, i.v., 0.15 mg/kg BW, trapezoidal rule, read-out: AUC0-.infin. (converted)
OBSERVATION_TYPE: AUC(0-inf) (ng·h/mL)
Answers are plain numbers, in ng·h/mL.

input: Requested field: AUC(0-inf). Item: CN1CCCC1c1cccnc1 (stereo not shown)
output: 262

* * *

# EXPERIMENTAL_DETAILS: Intravenous administration of nicotine in rats (plasma nicotine, pharmacokinetics)
# Type: in vivo, rat (male Lewis rats, Lew/Mol)
# TEST_CONTEXT: rat, 105 minutes after i.v. adm., 0.15 mg/kg BW, read-out: Plasma nicotine values, average for 6 rats
OBSERVATION_TYPE: concentration at 1.75 h
Respond with the figure and its unit, in that order.

input: Requested field: concentration at 1.75 h. Item: CN1CCCC1c1cccnc1 (stereo not shown) [nicotine]
output: 38 ng/mL
